# system-name: acetylcholine receptor
# protocol: SPR, AchR immobilised on chip, peptide at 10 uM
assay-endpoint: Binding affinity (RU)
Answer as a quantity: numeral, then unit.

>>> print(df.to_string())
             binder  result
0  RVFTR [5mer-277]   82 RU

Entry KQYRK [5mer-252] — recorded Binding affinity (RU) = 53 RU

Entry KVYTR [5mer-275] — recorded Binding affinity (RU) = 64 RU

Entry RSLYR [5mer-253] — recorded Binding affinity (RU) = 75 RU

Entry KQVQR [5mer-284] — recorded Binding affinity (RU) = 52 RU

Entry RQQSR [5mer-550] — recorded Binding affinity (RU) = 83 RU

Entry KLLRK [5mer-254] — recorded Binding affinity (RU) = 87 RU

Entry RVRQR [5mer-562] — recorded Binding affinity (RU) = 70 RU
